Data credit: patent US12357596B2

- PROCEDURE_SUMMARY: Toxicokinetics in satellite animals of the 28-day oral gavage study (plasma, Day 1)
- Assay type: in vivo, Sprague-Dawley rats
- CONDITION_DESCRIPTION: Sprague-Dawley, rat, male rats, Day 1, 30 mg/kg/day (NOAEL), for information only (ISR failed)
READOUT_NAME: AUC(0-t) (ng·h/mL)
Quick note: give the figure in ng·h/mL, leave out the unit.

Query: Looking for the measured AUC(0-t) of COc1cccc(/C=N/N(C(=O)C(F)(F)F)c2ccc(C)cc2C)c1 , can you help?
Reply: 835

* * *

- PROCEDURE_SUMMARY: 28-day once-daily oral gavage toxicity study with 14-day recovery (body weight, food consumption, clinical and anatomic pathology)
- Format: in vivo
- CONDITION_DESCRIPTION: both sexes, Sprague-Dawley, rat, in vivo, po
READOUT_NAME: NOAEL at 28 days
State the value, then name its unit.

Query: Looking for the measured NOAEL at 28 days of COc1cccc(/C=N/N(C(=O)C(F)(F)F)c2ccc(C)cc2C)c1 , can you help?
Reply: 30 mg/kg/day
